Hey, just so you know, these numbers are from paper PMC6001238.

In this section, each of the compounds is paired with its reported MIC.
# Test system: MRSA KS2
# Procedure Summary: MIC, broth microdilution, MRSA KS2
# Type: cell-based, Staphylococcus aureus
# Experimental Parameters: Staphylococcus aureus MRSA KS2; read-out: MIC

| Compound | MIC / µM |
| --- | --- |
| CNC(CC(C)C)C(=O)NC1C(=O)NC(CC(N)=O)C(=O)NC2C(=O)NC3C(=O)NC(C(=O)NC(C(=O)NCCCNC(=O)c4ccc(-c5ccccc5)cc4)c4cc(O)cc(O)c4-c4cc3ccc4O)C(O)c3ccc(c(Cl)c3)Oc3cc2cc(c3OC2OC(CO)C(O)C(O)C2OC2CC(C)(N)C(O)C(C)O2)Oc2ccc(cc2Cl)C1O (stereo not drawn) | 0.20 |
| CN[C@H](CC(C)C)C(=O)N[C@H]1C(=O)N[C@@H](CC(N)=O)C(=O)N[C@H]2C(=O)N[C@H]3C(=O)N[C@H](C(=O)N[C@H](C(=O)NCC(=O)Nc4ccc(Oc5ccccc5)cc4)c4cc(O)cc(O)c4-c4cc3ccc4O)[C@H](O)c3ccc(c(Cl)c3)Oc3cc2cc(c3O[C@@H]2O[C@H](CO)[C@@H](O)[C@H](O)[C@H]2O[C@H]2C[C@](C)(N)[C@H](O)[C@H](C)O2)Oc2ccc(cc2Cl)[C@H]1O | 0.20 |
| CNC(CC(C)C)C(=O)NC1C(=O)NC(CC(N)=O)C(=O)NC2C(=O)NC3C(=O)NC(C(=O)NC(C(=O)NCCCNC(=O)c4ccc(C(F)(F)F)cc4)c4cc(O)cc(O)c4-c4cc3ccc4O)C(O)c3ccc(c(Cl)c3)Oc3cc2cc(c3OC2OC(CO)C(O)C(O)C2OC2CC(C)(N)C(O)C(C)O2)Oc2ccc(cc2Cl)C1O (stereo not drawn) | 0.39 |
